// reported IC50 for each item listed
# assayed-system: CDK6/cyclin D3 (Homo sapiens)
# Sequence (P30281 whole entry): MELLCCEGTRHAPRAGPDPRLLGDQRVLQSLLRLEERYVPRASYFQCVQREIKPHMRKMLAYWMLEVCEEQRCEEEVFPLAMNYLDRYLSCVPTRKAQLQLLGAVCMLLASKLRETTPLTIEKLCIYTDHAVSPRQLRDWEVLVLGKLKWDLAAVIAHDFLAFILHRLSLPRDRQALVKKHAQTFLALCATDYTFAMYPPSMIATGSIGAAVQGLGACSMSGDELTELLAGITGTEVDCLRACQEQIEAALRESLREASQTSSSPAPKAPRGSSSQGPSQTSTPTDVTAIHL
# Sequence (Q00534 whole entry): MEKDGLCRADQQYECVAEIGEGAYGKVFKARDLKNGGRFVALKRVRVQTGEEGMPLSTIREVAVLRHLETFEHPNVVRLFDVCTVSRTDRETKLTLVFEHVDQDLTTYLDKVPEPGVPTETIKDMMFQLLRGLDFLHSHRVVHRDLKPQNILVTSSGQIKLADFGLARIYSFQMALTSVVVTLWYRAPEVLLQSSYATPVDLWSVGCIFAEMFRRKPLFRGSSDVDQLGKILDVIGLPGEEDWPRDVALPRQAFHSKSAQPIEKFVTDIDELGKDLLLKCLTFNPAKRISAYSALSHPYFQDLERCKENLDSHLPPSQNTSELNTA
# assay-method-text: Inhibition of human CDK6/CyclinD3
recorded-metric: IC50

| chemical-structure | reading |
| --- | --- |
| Cc1cccc(C(=O)N[C@H]2C[C@@H](n3cnc4c(NCc5cccc(Cl)c5)ncnc43)C2)n1 | > 1 µM |
| Cc1cccc(C(=O)N[C@H]2C[C@@H](n3cnc4c(NCc5cccc(Br)c5)ncnc43)C2)n1 | > 1 µM |

---

// reported IC50 for each item listed
# assayed-system: CDK2/Cyclin A2 (Homo sapiens, UniProt P24941)
# assay-method-text: Inhibition of CDK2/CyclinA (unknown origin) using ULingt-4E-BP as substrate after 1 hr in presence of ATP by fluorescence assay

| chemical-structure | value-operator | IC50, nM |
| --- | --- | --- |
| Cc1cccc(C(=O)N[C@H]2C[C@@H](n3cnc4c(Nc5ccncc5)ncnc43)C2)n1 | > | 1000 |
| Cc1cccc(C(=O)N[C@H]2C[C@@H](n3cnc4c(NCC5CCCCC5)ncnc43)C2)n1 | = | 49 |
| Cc1cccc(C(=O)N[C@H]2C[C@@H](n3cnc4c(NCc5cccc(F)c5)ncnc43)C2)n1 | = | 15 |
| Cc1cccc(C(=O)N[C@H]2C[C@@H](n3cnc4c(NC5CCN(C(=O)OC(C)(C)C)CC5)ncnc43)C2)n1 | = | 95 |

---

// reported IC50 for each item listed
# assayed-system: CDK9/cyclin T1 (Homo sapiens)
# Sequence (O60563 whole entry): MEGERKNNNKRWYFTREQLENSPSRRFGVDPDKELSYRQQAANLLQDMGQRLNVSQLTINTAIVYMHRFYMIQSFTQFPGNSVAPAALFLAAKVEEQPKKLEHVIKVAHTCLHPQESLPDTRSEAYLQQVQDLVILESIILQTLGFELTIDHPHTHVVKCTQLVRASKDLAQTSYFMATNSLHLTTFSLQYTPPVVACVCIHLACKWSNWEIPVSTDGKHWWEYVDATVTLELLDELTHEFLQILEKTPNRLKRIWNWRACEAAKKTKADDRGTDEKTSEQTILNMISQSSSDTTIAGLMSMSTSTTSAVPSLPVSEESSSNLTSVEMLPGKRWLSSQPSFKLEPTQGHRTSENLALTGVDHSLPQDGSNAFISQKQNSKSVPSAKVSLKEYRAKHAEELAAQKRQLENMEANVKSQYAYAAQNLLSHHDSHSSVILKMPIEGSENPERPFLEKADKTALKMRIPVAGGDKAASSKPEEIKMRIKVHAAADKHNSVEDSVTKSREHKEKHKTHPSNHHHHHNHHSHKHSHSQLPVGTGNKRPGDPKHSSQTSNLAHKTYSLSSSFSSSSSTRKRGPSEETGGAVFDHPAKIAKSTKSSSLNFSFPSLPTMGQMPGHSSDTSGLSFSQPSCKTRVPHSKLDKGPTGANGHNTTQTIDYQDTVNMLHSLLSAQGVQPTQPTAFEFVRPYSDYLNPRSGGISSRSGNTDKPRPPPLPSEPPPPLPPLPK
# Sequence (P50750 whole entry): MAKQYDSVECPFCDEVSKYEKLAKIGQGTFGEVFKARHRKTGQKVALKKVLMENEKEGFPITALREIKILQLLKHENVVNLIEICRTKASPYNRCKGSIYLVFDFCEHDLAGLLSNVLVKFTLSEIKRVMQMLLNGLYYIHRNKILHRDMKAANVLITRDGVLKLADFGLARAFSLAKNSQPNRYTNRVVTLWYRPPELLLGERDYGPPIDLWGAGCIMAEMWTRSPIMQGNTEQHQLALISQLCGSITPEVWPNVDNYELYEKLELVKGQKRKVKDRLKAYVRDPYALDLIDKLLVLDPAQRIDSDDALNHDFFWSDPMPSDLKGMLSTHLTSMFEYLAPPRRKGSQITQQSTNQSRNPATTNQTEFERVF
# assay-method-text: Inhibition of human CDK9/CyclinT1

| chemical-structure | assayed-system | IC50 [nM] |
| --- | --- | --- |
| Cc1cccc(C(=O)N[C@H]2C[C@@H](n3cnc4c(NCc5cccc(Cl)c5)ncnc43)C2)n1 | CDK9/cyclin T1 (Homo sapiens) | 27 |
| Cc1cccc(C(=O)N[C@H]2C[C@@H](n3cnc4c(NCc5cccc(Br)c5)ncnc43)C2)n1 | CDK9/cyclin T1 (Homo sapiens) | 19 |

---

# assayed-system: Cyclin-dependent kinase 5/CDK5 activator 1 (Homo sapiens) (UniProt Q00535+Q15078)
# Sequence (Q00535 whole entry): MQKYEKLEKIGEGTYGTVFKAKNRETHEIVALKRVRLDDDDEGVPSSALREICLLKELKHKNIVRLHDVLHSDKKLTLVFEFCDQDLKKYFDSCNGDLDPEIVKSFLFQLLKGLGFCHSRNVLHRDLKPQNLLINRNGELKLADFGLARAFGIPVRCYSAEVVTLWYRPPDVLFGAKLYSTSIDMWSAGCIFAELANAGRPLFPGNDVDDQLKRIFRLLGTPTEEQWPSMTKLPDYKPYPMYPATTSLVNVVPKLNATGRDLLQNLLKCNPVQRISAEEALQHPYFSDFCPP
# Sequence (Q15078 99-307 partner limits assumed): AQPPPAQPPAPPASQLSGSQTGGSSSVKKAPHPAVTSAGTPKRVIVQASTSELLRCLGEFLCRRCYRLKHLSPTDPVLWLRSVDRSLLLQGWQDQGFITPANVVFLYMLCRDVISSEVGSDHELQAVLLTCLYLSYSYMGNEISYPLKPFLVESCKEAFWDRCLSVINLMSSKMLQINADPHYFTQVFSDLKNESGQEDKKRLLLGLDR
# assay-method-text: Inhibition of CDK5/p35 (unknown origin) using ULingt-4E-BP as substrate at 25 nM after 1 hr in presence of ATP by fluorescence assay relative to control
# Format: protein-complex assay
recorded-metric: inhibition

| compound | reading |
| --- | --- |
| CN1CCCC1C(=O)N[C@H]1C[C@@H](n2cnc3c(NCc4cccnc4)ncnc32)C1 (some centres not stated) | < 50% |
| Cc1cccc(C(=O)N[C@H]2C[C@@H](n3cnc4c(Nc5cccc(Cl)c5)ncnc43)C2)n1 | 60% |
| Cc1cccc(C(=O)N[C@H]2C[C@@H](n3cnc4c(NCc5ccc(N(C)C)cc5)ncnc43)C2)n1 | 53% |
| Cc1cccc(C(=O)N[C@H]2C[C@@H](n3cnc4c(NCc5ccccn5)ncnc43)C2)n1 | 54% |
| Cc1ccc(C(=O)N[C@H]2C[C@@H](n3cnc4c(NCc5cccnc5)ncnc43)C2)cc1C | < 50% |
| O=C(N[C@H]1C[C@@H](n2cnc3c(NCc4cccnc4)ncnc32)C1)c1cnccn1 | < 50% |
| Cc1cccc(C(=O)N[C@H]2C[C@@H](n3cnc4c(NCc5ccc(Br)cc5)ncnc43)C2)n1 | 80% |

---

# assayed-system: Cyclin-dependent kinase 5/CDK5 activator 1 (Homo sapiens, UniProt Q00535)
# Sequence (Q00535 whole entry): as the sequence (Q00535 whole entry) above
# Sequence (Q15078 whole entry, further chain): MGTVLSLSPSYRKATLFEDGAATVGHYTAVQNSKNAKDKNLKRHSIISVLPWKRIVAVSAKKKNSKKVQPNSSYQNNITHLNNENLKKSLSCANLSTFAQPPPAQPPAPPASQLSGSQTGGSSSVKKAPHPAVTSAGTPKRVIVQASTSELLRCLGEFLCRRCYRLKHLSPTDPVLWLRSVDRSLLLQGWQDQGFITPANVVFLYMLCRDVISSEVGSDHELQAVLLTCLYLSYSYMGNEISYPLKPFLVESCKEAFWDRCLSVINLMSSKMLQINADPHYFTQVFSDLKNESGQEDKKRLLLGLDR
# assay-method-text: Inhibition of CDK5/p35 (unknown origin) using ULingt-4E-BP as substrate after 1 hr in presence of ATP by fluorescence assay
Classes by IC50: interval 1: < 30 nM; interval 2: ≥ 30 nM and < 70 nM; interval 3: ≥ 70 nM

| compound | assigned-label |
| --- | --- |
| Cc1cccc(C(=O)N[C@H]2C[C@@H](n3cnc4c(NCC5CCCCC5)ncnc43)C2)n1 | interval 1 |
| Cc1cccc(C(=O)N[C@H]2C[C@@H](n3cnc4c(NCC5CCN(C(=O)OC(C)(C)C)CC5)ncnc43)C2)n1 | interval 3 |
| Cc1cccc(C(=O)N[C@H]2C[C@@H](n3cnc4c(NC5CCNC5)ncnc43)C2)n1 (stereo partly specified) | interval 3 |
| Cc1cccc(C(=O)N[C@H]2C[C@@H](n3cnc4c(NCc5ccc(Cl)c(Cl)c5)ncnc43)C2)n1 | interval 2 |
| Cc1cccc(C(=O)N[C@H]2C[C@@H](n3cnc4c(NC5CCNCC5)ncnc43)C2)n1 | interval 3 |
| COc1ccc(Nc2ncnc3c2ncn3[C@H]2C[C@@H](NC(=O)c3cccc(C)n3)C2)cc1OC | interval 3 |
| O=C(N[C@H]1C[C@@H](n2cnc3c(NCc4cccnc4)ncnc32)C1)c1cccc(-c2ccccc2)n1 | interval 2 |
| Cc1cccc(C(=O)N[C@H]2C[C@@H](n3cnc4c(NC5CCN(C(=O)OC(C)(C)C)CC5)ncnc43)C2)n1 | interval 2 |
| Cc1cccc(C(=O)N[C@H]2C[C@@H](n3cnc4c(NCc5cccc(Cl)c5)ncnc43)C2)n1 | interval 1 |
| COc1cccc(Nc2ncnc3c2ncn3[C@H]2C[C@@H](NC(=O)c3cccc(C)n3)C2)c1 | interval 2 |
| Cc1cccc(C(=O)N[C@H]2C[C@@H](n3cnc4c(N[C@H]5CC[C@H](O)CC5)ncnc43)C2)n1 | interval 3 |
| Cc1cccc(C(=O)N[C@H]2C[C@@H](n3cnc4c(Nc5ccncc5)ncnc43)C2)n1 | interval 3 |
| Cc1cccc(C(=O)N[C@H]2C[C@@H](n3cnc4c(NCc5cccc(F)c5)ncnc43)C2)n1 | interval 1 |

// provenance: ChEMBL document CHEMBL4043187
